Test system: SK-N-DZ MYCN-amplified neuroblastoma cell line
assay summary: Secondary validation screen of synthetic lethal miRNAs with low dose IC30 chemotherapy, additional cell line
Assay type: cell-based
condition parameters: miRNA mimic + low dose IC30 vincristine
Additional cell line Viability (% of control) SKNDZ VCR listing for selected substances.

These recorded examples may help you get a feel for the data.
Query string: Quick check: Additional cell line Viability (% of control) SKNDZ VCR of hsa-miR-34c-5p (AGGCAGUGUAGUUAGCUGAUUGC; chemistry not given here; listed as Homo sapiens) ?
Result string: 31 % of control

Query string: Quick check: Additional cell line Viability (% of control) SKNDZ VCR of hsa-miR-485-3p (guide GUCAUACACGGCUCUCCUCUCU; chemistry not given here; listed as Homo sapiens) ?
Result string: 68 % of control

Query string: Quick check: Additional cell line Viability (% of control) SKNDZ VCR of hsa-miR-99b-5p (guide CACCCGUAGAACCGACCUUGCG; chemistry not given here; listed as Homo sapiens) ?
Result string: 61 % of control

Query string: Quick check: Additional cell line Viability (% of control) SKNDZ VCR of hsa-miR-3181 (AUCGGGCCCUCGGCGCCGG; chemistry not given here; listed as Homo sapiens) ?
Result string: 83 % of control

Next:
Query string: Quick check: Additional cell line Viability (% of control) SKNDZ VCR of hsa-miR-380-3p (UAUGUAAUAUGGUCCACAUCUU; chemistry not given here; listed as Homo sapiens) ?
Result string: 80 % of control

Query string: Quick check: Additional cell line Viability (% of control) SKNDZ VCR of hsa-miR-34a-5p (UGGCAGUGUCUUAGCUGGUUGU; chemistry not given here; listed as Homo sapiens) ?
Result string: 57 % of control

Query string: Quick check: Additional cell line Viability (% of control) SKNDZ VCR of hsa-miR-100-5p (AACCCGUAGAUCCGAACUUGUG; chemistry not given here; listed as Homo sapiens) ?
Result string: 69 % of control

Query string: Quick check: Additional cell line Viability (% of control) SKNDZ VCR of hsa-miR-3924 (AUAUGUAUAUGUGACUGCUACU; chemistry not given here; listed as Homo sapiens) ?
Result string: 81 % of control

Query string: Quick check: Additional cell line Viability (% of control) SKNDZ VCR of hsa-miR-1321 (CAGGGAGGUGAAUGUGAU; chemistry not given here; listed as Homo sapiens) ?
Result string: 45 % of control

---

Tested on: KELLY cells
assay summary: Secondary validation screen of synthetic lethal miRNAs with low dose IC30 chemotherapy, cell viability
Assay type: cell-based
condition parameters: miRNA mimic + vehicle
Experimental: KELLY cells were grown in 10% FCS/RPMI as described in Example 1 and reverse transfected in 384-well plate format with 25 nM of a miRNA from the Dharmacon microRNA mimic Library (version 16.0) using liquid-handling robot Calliper Sciclone ALH3000 according to the conditions described in Table 3. After 24 hours, media was changed using a BioTek 406. […] 144 hours post-transfection, cell viability was determined using CellTiter-Glo luminescent assay (Promega) at 1:2 dilution. […]
experimental readout: Secondary screen Viability (% of control) Kelly Vehicle

Query string: // map hsa-miR-515-3p (guide GAGUGCCUUCUUUUGGAGCGUU; chemistry not given here; listed as Homo sapiens) to recorded Secondary screen Viability (% of control) Kelly Vehicle (system: KELLY cells)
Result string: 82 % of control

Query string: // map hsa-miR-449a (guide UGGCAGUGUAUUGUUAGCUGGU; chemistry not given here; listed as Homo sapiens) to recorded Secondary screen Viability (% of control) Kelly Vehicle (system: KELLY cells)
Result string: 75 % of control

Query string: // map hsa-miR-3924 (AUAUGUAUAUGUGACUGCUACU; chemistry not given here; listed as Homo sapiens) to recorded Secondary screen Viability (% of control) Kelly Vehicle (system: KELLY cells)
Result string: 75 % of control

Query string: // map hsa-miR-3646 (AAAAUGAAAUGAGCCCAGCCCA; chemistry not given here; listed as Homo sapiens) to recorded Secondary screen Viability (% of control) Kelly Vehicle (system: KELLY cells)
Result string: 70 % of control

Query string: // map hsa-miR-380-3p (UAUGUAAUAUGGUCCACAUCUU; chemistry not given here; listed as Homo sapiens) to recorded Secondary screen Viability (% of control) Kelly Vehicle (system: KELLY cells)
Result string: 90 % of control

Query string: // map hsa-miR-34a-5p (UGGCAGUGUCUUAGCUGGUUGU; chemistry not given here; listed as Homo sapiens) to recorded Secondary screen Viability (% of control) Kelly Vehicle (system: KELLY cells)
Result string: 96 % of control

---

Primary screen Viability (% of control) Kelly Vehicle listing for selected substances.
Tested on: KELLY cells
assay summary: Primary miRNA mimic screen in combination with low dose IC30 of vincristine or doxorubicin, cell viability
Assay type: cell-based
condition parameters: miRNA mimic 25 nM + vehicle

These recorded examples may help you get a feel for the data.
Query string: // map hsa-miR-515-3p (guide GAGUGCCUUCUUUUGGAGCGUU; chemistry not given here; listed as Homo sapiens) to recorded Primary screen Viability (% of control) Kelly Vehicle (system: KELLY cells)
Result string: 84 % of control

Query string: // map hsa-miR-34c-5p (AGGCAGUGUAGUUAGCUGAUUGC; chemistry not given here; listed as Homo sapiens) to recorded Primary screen Viability (% of control) Kelly Vehicle (system: KELLY cells)
Result string: 72 % of control

Query string: // map hsa-miR-380-3p (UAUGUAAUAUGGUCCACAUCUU; chemistry not given here; listed as Homo sapiens) to recorded Primary screen Viability (% of control) Kelly Vehicle (system: KELLY cells)
Result string: 94 % of control

Query string: // map hsa-miR-449a (guide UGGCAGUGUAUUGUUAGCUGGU; chemistry not given here; listed as Homo sapiens) to recorded Primary screen Viability (% of control) Kelly Vehicle (system: KELLY cells)
Result string: 72 % of control

Query string: // map hsa-miR-100-5p (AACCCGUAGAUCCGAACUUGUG; chemistry not given here; listed as Homo sapiens) to recorded Primary screen Viability (% of control) Kelly Vehicle (system: KELLY cells)
Result string: 68 % of control

Query string: // map hsa-miR-3924 (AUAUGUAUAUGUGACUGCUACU; chemistry not given here; listed as Homo sapiens) to recorded Primary screen Viability (% of control) Kelly Vehicle (system: KELLY cells)
Result string: 72 % of control

Query string: // map hsa-miR-3646 (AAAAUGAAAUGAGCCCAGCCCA; chemistry not given here; listed as Homo sapiens) to recorded Primary screen Viability (% of control) Kelly Vehicle (system: KELLY cells)
Result string: 74 % of control

Query string: // map hsa-miR-3181 (AUCGGGCCCUCGGCGCCGG; chemistry not given here; listed as Homo sapiens) to recorded Primary screen Viability (% of control) Kelly Vehicle (system: KELLY cells)
Result string: 94 % of control

Next, consider the following substance.
Query string: // map hsa-miR-99b-5p (guide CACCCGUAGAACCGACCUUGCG; chemistry not given here; listed as Homo sapiens) to recorded Primary screen Viability (% of control) Kelly Vehicle (system: KELLY cells)
Result string: 65 % of control

---

Primary screen Viability (% of control) KELLY listing for selected substances.
Test system: KELLY cells
assay summary: Primary functional miRNA mimic screen, CellTiter-Glo cell viability
Format: cell-based
condition parameters: miRNA mimic 25 nM alone, 144 hours post-transfection

Query string: // map hsa-miR-517c-3p (guide AUCGUGCAUCCUUUUAGAGUGU; chemistry not given here; listed as Homo sapiens) to recorded Primary screen Viability (% of control) KELLY (system: KELLY cells)
Result string: 26 % of control

Next:
Query string: // map hsa-miR-552 (guide AACAGGUGACUGGUUAGACAA; chemistry not given here; listed as Homo sapiens) to recorded Primary screen Viability (% of control) KELLY (system: KELLY cells)
Result string: 2 % of control

Query string: // map hsa-miR-101-3p (UACAGUACUGUGAUAACUGAA; chemistry not given here; listed as Homo sapiens) to recorded Primary screen Viability (% of control) KELLY (system: KELLY cells)
Result string: 6 % of control

Query string: // map hsa-miR-103a-2-5p (AGCUUCUUUACAGUGCUGCCUUG; chemistry not given here; listed as Homo sapiens) to recorded Primary screen Viability (% of control) KELLY (system: KELLY cells)
Result string: 26 % of control

Query string: // map hsa-miR-542-3p (guide UGUGACAGAUUGAUAACUGAAA; chemistry not given here; listed as Homo sapiens) to recorded Primary screen Viability (% of control) KELLY (system: KELLY cells)
Result string: 6 % of control

Query string: // map hsa-miR-634 (guide AACCAGCACCCCAACUUUGGAC; chemistry not given here; listed as Homo sapiens) to recorded Primary screen Viability (% of control) KELLY (system: KELLY cells)
Result string: 7 % of control

Cited source: patent US20190300882A1
